B1: P2RY14 (parent)
chain: KKIFKSHLKSSRNSTSVKKKSSRN

Variants of: B1
Experiment notes: protein stability index of a GFP-peptide fusion (GPS, HEK-293T) (PSI 1-6); higher = more stable;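 also: lentivirally expressed fusions sorted by FACS into six bins by GFP to DsRed ratio, PSI derived from sequencing read proportions per bin multiplied by bin number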
Measurement context: c terminus: a fixed tail appended
Reported values of protein stability index for individual entries

- Sequence change: "N24S"
  protein stability index: 4.07
- Sequence change: "N24I"
  protein stability index: 3.61
- Sequence change: "H7K"
  protein stability index: 4.39
- Sequence change: "R12V"
  protein stability index: 4.45
- Sequence change: "N13D"
  protein stability index: 3.68
- Sequence change: "K2T"
  protein stability index: 4.3
- Sequence change: "I3N"
  protein stability index: 4.63
- Sequence change: "H7V"
  protein stability index: 3.93
- Sequence change: "V17I"
  protein stability index: 3.59
- Sequence change: "K1N"
  protein stability index: 4.4
- Sequence change: "K19Y"
  protein stability index: 3.17
- Sequence change: "H7N"
  protein stability index: 4
- Sequence change: "S11D"
  protein stability index: 4.33
- Sequence change: "K1V"
  protein stability index: 3.5
- Sequence change: "I3Y"
  protein stability index: 4.39
- Sequence change: "K18A"
  protein stability index: 3.8
- Sequence change: "N13G"
  protein stability index: 4.11
- Sequence change: "S21L"
  protein stability index: 3.77
- Sequence change: "K18L"
  protein stability index: 3.86
- Sequence change: "K20D"
  protein stability index: 3.89
- Sequence change: "T15N"
  protein stability index: 4.45
- Sequence change: "K9F"
  protein stability index: 3.57
